- Target system: human recombinant dopamine D2L receptor (Homo sapiens)
- Construct: expressed in transfected cells; host or cells: CHO cells
- Sequence (P14416 whole entry): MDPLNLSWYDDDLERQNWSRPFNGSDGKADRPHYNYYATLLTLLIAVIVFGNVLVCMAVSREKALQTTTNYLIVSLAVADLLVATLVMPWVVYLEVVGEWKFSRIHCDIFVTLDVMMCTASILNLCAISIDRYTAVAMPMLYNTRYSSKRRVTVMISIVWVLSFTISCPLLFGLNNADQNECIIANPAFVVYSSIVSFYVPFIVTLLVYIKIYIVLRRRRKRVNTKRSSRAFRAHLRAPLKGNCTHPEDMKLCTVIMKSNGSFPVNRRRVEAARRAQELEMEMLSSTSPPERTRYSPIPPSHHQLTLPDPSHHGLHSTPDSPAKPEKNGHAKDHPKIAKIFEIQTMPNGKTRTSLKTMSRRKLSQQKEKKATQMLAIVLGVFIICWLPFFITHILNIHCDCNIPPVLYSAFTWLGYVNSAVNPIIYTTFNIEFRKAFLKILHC
- Method summary: Dopamine D2L radioligand binding ([3H]Spiperone)
- Protocol conditions: compound at 1 μM; read-out: Dopamine (1 μM) D2L, percent inhibition of specific binding
Here, each record is paired with measured inhibition at 1 µM data.
Assay readout: inhibition at 1 µM (%)

compound="CN1CCc2c(n(CC(O)c3ccncc3)c3ccc(Cl)cc23)CC1 (centres unmarked) [Compound No. 42]" result_value=8
compound="C/C(=C/n1c2c(c3cc(Cl)ccc31)CCN(C)CC2)c1ccc(Cl)cc1Cl [Compound No. 152]" result_value=3
compound="CN1CCc2c(n(C#Cc3ccc(F)cc3)c3ccc(Cl)cc23)CC1 [Compound No. 281]" result_value=40
compound="C/C(=C\\n1c2c(c3cc(C)ccc31)CCN(C)CC2)c1ccc(Cl)c(Cl)c1 [Compound No. 176]" result_value=23
compound="Cc1ccc2c(c1)c1c(n2CCc2ccccc2)CCN(C)CC1 [Compound No. 62]" result_value=7
compound="C/C(=C\\n1c2c(c3cc(Cl)ccc31)CCN(C)CC2)c1ccncc1 [Compound No. 248]" result_value=81
compound="C/C(=C\\n1c2c(c3cc(Cl)ccc31)CCN(C)CC2)c1ccc(Cl)cc1Cl [Compound No. 239]" result_value=9
compound="CN1CCc2c(n(CC(=O)N3CCOCC3)c3ccc(Cl)cc23)CC1 [Compound No. 60]" result_value=-9

====

Quick reference for inhibition at 1 µM among some compounds
- Target system: human recombinant adrenergic α1D receptor (Homo sapiens, UniProt P25100)
- Construct: expressed in transfected cells; host or cells: HEK-293 cells
- Sequence (P25100 whole entry): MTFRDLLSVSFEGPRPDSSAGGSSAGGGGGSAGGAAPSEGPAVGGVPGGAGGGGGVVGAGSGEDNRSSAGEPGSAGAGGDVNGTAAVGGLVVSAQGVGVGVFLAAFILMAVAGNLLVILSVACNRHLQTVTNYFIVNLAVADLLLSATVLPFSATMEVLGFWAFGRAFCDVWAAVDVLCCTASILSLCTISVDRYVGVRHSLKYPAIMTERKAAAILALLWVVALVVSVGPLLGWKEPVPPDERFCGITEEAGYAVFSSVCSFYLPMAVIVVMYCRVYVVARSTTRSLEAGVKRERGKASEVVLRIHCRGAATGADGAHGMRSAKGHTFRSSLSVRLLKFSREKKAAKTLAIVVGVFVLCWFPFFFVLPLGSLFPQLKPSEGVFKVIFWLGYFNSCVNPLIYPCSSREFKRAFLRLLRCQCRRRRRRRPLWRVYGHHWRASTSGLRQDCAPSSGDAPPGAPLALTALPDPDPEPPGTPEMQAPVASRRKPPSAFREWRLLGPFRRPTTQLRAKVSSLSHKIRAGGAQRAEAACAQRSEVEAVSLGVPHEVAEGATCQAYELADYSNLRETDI
- Method summary: Adrenergic alpha1D radioligand binding ([3H]Prozosin)
- Protocol conditions: compound at 1 μM; read-out: Adrenergic (1 μM) α1D, percent inhibition of specific binding
Assay readout: inhibition at 1 µM (%)

compound="COc1ccc(C(O)Cn2c3c(c4cc(Cl)ccc42)CCN(C)CC3)c(F)c1 (centres unmarked)" result_value=71
compound=CN1CCc2c(n(CC(=O)N(C)C3CCCCC3)c3ccc(Cl)cc23)CC1 result_value=17
compound=CN1CCc2c(n(CCc3ccccn3)c3ccc(Cl)cc23)CC1 result_value=91
compound=CN1CCc2c(n(/C=C/c3ccc(F)c(F)c3)c3ccc(Cl)cc23)CC1 result_value=94
compound="CN1CCc2c(n(CC(O)c3ccncc3)c3ccc(Cl)cc23)CC1 (centres unmarked)" result_value=73

====

Collected inhibition at 1 µM values appear next to each entry.
- Target system: human recombinant serotonin (5-Hydroxytryptamine) 5-HT2C receptor (Homo sapiens, UniProt P28335)
- Construct: expressed in transfected cells; host or cells: CHO-K1 cells
- Sequence (P28335 33-458): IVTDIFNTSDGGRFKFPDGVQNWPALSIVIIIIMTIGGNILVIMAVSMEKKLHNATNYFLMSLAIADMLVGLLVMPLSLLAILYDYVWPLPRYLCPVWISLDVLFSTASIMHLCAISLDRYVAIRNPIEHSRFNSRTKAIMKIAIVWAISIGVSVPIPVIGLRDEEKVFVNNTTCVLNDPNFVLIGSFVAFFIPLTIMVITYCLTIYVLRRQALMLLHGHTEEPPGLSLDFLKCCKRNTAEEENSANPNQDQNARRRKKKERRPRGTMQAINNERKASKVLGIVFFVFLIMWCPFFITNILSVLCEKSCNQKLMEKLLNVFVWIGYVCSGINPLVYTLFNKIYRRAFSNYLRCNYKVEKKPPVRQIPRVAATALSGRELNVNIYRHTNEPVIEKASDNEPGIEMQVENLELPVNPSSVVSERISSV
- Method summary: Serotonin 5-HT2C radioligand binding ([3H]Mesulergine)
- Protocol conditions: compound at 1 μM; read-out: Serotonin (1 μM) 5-HT2C, percent inhibition of specific binding
Assay readout: inhibition at 1 µM

item_smiles=Cc1ccc2c(c1)c1c(n2CCc2ccc(Cl)cc2)CCN(C)CC1 result_value=94%
item_smiles=CN1CCc2c(n(CCc3ccccc3)c3ccc(Cl)cc23)CC1 result_value=95%
item_smiles=CN1CCc2c(n(/C=C/c3ccc(F)cc3)c3ccc(Cl)cc23)CC1 result_value=98%
item_smiles=C/C(=C/n1c2c(c3cc(Cl)ccc31)CCN(C)CC2)c1ccc(Cl)cc1Cl result_value=94%
item_smiles=C/C(=C\n1c2c(c3cc(Cl)ccc31)CCN(C)CC2)c1ccncc1 result_value=101%
item_smiles=CN1CCc2c(n(CC(=O)N3CCCC3)c3ccc(Cl)cc23)CC1 result_value=32%
item_smiles=CN1CCc2c(n(CC(=O)N3CCCCC3)c3ccc(Cl)cc23)CC1 result_value=65%
item_smiles=Cc1ccc2c(c1)c1c(n2CC(=O)N2CCCCC2)CCN(C)CC1 result_value=48%
item_smiles=CN1CCc2c(n(CCc3ccc(Cl)cc3)c3ccc(Cl)cc23)CC1 result_value=98%

====

- Target system: human recombinant serotonin (5-Hydroxytryptamine) 5-HT6 receptor (Homo sapiens)
- Construct: expressed in transfected cells; host or cells: human HeLa cells
- Sequence (P50406 whole entry): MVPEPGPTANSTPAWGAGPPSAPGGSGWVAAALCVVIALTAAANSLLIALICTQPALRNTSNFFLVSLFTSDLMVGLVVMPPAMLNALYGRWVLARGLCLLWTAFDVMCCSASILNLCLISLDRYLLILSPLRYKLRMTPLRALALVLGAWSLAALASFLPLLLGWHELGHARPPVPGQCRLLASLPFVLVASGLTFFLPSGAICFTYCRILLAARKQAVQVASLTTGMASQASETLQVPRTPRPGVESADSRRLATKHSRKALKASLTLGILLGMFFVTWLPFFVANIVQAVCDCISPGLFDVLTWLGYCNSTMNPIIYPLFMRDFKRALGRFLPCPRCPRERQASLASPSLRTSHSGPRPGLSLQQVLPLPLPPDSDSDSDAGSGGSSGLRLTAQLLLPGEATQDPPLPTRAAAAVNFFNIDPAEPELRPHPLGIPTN
- Method summary: Serotonin 5-HT6 radioligand binding ([3H]LSD)
- Protocol conditions: compound at 1 μM; read-out: Serotonin (1 μM) 5-HT6, percent inhibition of specific binding
The reader will find reported inhibition at 1 µM values listed item by item below.
Assay readout: inhibition at 1 µM (%)

compound="CN1CCc2c(n(CC(=O)N3CCCC3)c3ccc(Cl)cc23)CC1 [Compound No. 53]" target_system="human recombinant serotonin (5-Hydroxytryptamine) 5-HT6 receptor (Homo sapiens)" assay_readout="inhibition at 1 µM" result_value=-1
compound="Cc1ccc2c(c1)c1c(n2CC(=O)NC2CCCCC2)CCN(C)CC1 [Compound No. 22]" target_system="human recombinant serotonin (5-Hydroxytryptamine) 5-HT6 receptor (Homo sapiens)" assay_readout="inhibition at 1 µM" result_value=-12
compound="C/C(=C\\n1c2c(c3cc(Cl)ccc31)CCN(C)CC2)c1ccncc1 [Compound No. 248]" target_system="human recombinant serotonin (5-Hydroxytryptamine) 5-HT6 receptor (Homo sapiens)" assay_readout="inhibition at 1 µM" result_value=103
compound="CN1CCc2c(n(CCc3ccccc3F)c3ccc(Cl)cc23)CC1 [Compound No. 61]" target_system="human recombinant serotonin (5-Hydroxytryptamine) 5-HT6 receptor (Homo sapiens)" assay_readout="inhibition at 1 µM" result_value=5
compound="C/C(=C\\n1c2c(c3cc(C)ccc31)CCN(C)CC2)c1ccccc1F [Compound No. 241]" target_system="human recombinant serotonin (5-Hydroxytryptamine) 5-HT6 receptor (Homo sapiens)" assay_readout="inhibition at 1 µM" result_value=100
compound="Cc1ccc2c(c1)c1c(n2CCc2ccccc2)CCN(C)CC1 [Compound No. 62]" target_system="human recombinant serotonin (5-Hydroxytryptamine) 5-HT6 receptor (Homo sapiens)" assay_readout="inhibition at 1 µM" result_value=-4
compound="C/C(=C\\n1c2c(c3cc(C)ccc31)CCN(C)CC2)c1ccc(F)cc1 [Compound No. 34]" target_system="human recombinant serotonin (5-Hydroxytryptamine) 5-HT6 receptor (Homo sapiens)" assay_readout="inhibition at 1 µM" result_value=103
compound="C/C(=C/n1c2c(c3cc(Cl)ccc31)CCN(C)CC2)c1ccccc1F [Compound No. 242]" target_system="human recombinant serotonin (5-Hydroxytryptamine) 5-HT6 receptor (Homo sapiens)" assay_readout="inhibition at 1 µM" result_value=102
compound="COc1ccc(/C(C)=C/n2c3c(c4cc(Cl)ccc42)CCN(C)CC3)cc1 [Compound No. 160]" target_system="human recombinant serotonin (5-Hydroxytryptamine) 5-HT6 receptor (Homo sapiens)" assay_readout="inhibition at 1 µM" result_value=99
compound="Cc1ccc2c(c1)c1c(n2CC(O)c2ccc(F)cc2F)CCN(C)CC1 (stereo not shown) [Compound No. 59]" target_system="human recombinant serotonin (5-Hydroxytryptamine) 5-HT6 receptor (Homo sapiens)" assay_readout="inhibition at 1 µM" result_value=97
compound="Cc1ccc2c(c1)c1c(n2CC(=O)N(C)C2CCCCC2)CCN(C)CC1 [Compound No. 232]" target_system="human recombinant serotonin (5-Hydroxytryptamine) 5-HT6 receptor (Homo sapiens)" assay_readout="inhibition at 1 µM" result_value=20
compound="C/C(=C\\n1c2c(c3cc(Cl)ccc31)CCN(C)CC2)c1cccc(F)c1 [Compound No. 250]" target_system="human recombinant serotonin (5-Hydroxytryptamine) 5-HT6 receptor (Homo sapiens)" assay_readout="inhibition at 1 µM" result_value=99
compound="C/C(=C/n1c2c(c3cc(Cl)ccc31)CCN(C)CC2)c1ccc(Cl)cc1Cl [Compound No. 152]" target_system="human recombinant serotonin (5-Hydroxytryptamine) 5-HT6 receptor (Homo sapiens)" assay_readout="inhibition at 1 µM" result_value=73

====

- Target system: human recombinant adrenergic α2B receptor (Homo sapiens, UniProt P18089)
- Construct: expressed in transfected cells; host or cells: CHO-K1 cells
- Sequence (P18089 1-450): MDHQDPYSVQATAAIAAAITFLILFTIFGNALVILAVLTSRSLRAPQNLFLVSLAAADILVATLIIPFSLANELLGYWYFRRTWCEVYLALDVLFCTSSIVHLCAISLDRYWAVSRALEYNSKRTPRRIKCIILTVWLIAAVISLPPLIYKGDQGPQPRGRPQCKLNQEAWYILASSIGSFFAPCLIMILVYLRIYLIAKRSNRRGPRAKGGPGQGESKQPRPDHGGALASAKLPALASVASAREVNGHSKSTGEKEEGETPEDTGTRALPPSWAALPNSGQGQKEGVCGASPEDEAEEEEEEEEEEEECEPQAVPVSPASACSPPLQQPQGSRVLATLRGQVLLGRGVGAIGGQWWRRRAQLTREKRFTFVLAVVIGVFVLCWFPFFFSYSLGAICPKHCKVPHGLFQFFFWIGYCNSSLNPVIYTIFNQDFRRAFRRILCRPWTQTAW
- Method summary: Adrenergic alpha2B radioligand binding ([3H]Rauwolscine)
- Protocol conditions: compound at 1 μM; read-out: Adrenergic (1 μM) α2B, percent inhibition of specific binding
Returns one of T or F; T when inhibition at 1 µM is >= 90%.

compound=Cc1ccc2c(c1)c1c(n2CC(=O)Nc2ccc(F)cc2)CCN(C)CC1 target_system="human recombinant adrenergic α2B receptor (Homo sapiens, UniProt P18089)" qualitative_label=F
compound="CN1CCc2c(n(CC(O)c3ccncc3)c3ccc(Cl)cc23)CC1 (stereo not drawn)" target_system="human recombinant adrenergic α2B receptor (Homo sapiens, UniProt P18089)" qualitative_label=T
compound=CN1CCc2c(n(CCc3ccccc3Cl)c3ccc(Cl)cc23)CC1 target_system="human recombinant adrenergic α2B receptor (Homo sapiens, UniProt P18089)" qualitative_label=T
compound=CN1CCc2c(n(/C=C/c3ccccc3)c3ccc(Cl)cc23)CC1 target_system="human recombinant adrenergic α2B receptor (Homo sapiens, UniProt P18089)" qualitative_label=T
compound=COc1ccc(/C=C/n2c3c(c4cc(C)ccc42)CCN(C)CC3)cc1F target_system="human recombinant adrenergic α2B receptor (Homo sapiens, UniProt P18089)" qualitative_label=T
compound="COc1ccc(C(O)Cn2c3c(c4cc(C)ccc42)CCN(C)CC3)cc1OC (stereo not drawn)" target_system="human recombinant adrenergic α2B receptor (Homo sapiens, UniProt P18089)" qualitative_label=T
compound=CN1CCc2c(n(CC(=O)N3CCCCC3)c3ccc(Cl)cc23)CC1 target_system="human recombinant adrenergic α2B receptor (Homo sapiens, UniProt P18089)" qualitative_label=F
compound=CC(C)NC(=O)Cn1c2c(c3cc(Cl)ccc31)CCN(C)CC2 target_system="human recombinant adrenergic α2B receptor (Homo sapiens, UniProt P18089)" qualitative_label=F
compound=CN1CCc2c(n(CC(=O)N3CCOCC3)c3ccc(Cl)cc23)CC1 target_system="human recombinant adrenergic α2B receptor (Homo sapiens, UniProt P18089)" qualitative_label=F
compound="Cc1ccc2c(c1)c1c(n2CC(O)c2ccc(F)cc2)CCN(C)CC1 (stereo not drawn)" target_system="human recombinant adrenergic α2B receptor (Homo sapiens, UniProt P18089)" qualitative_label=T
compound=Cc1ccc2c(c1)c1c(n2CC(=O)N2CCNCC2)CCN(C)CC1 target_system="human recombinant adrenergic α2B receptor (Homo sapiens, UniProt P18089)" qualitative_label=F
compound=Cc1ccc2c(c1)c1c(n2CCc2ccccc2Cl)CCN(C)CC1 target_system="human recombinant adrenergic α2B receptor (Homo sapiens, UniProt P18089)" qualitative_label=F
compound=CN1CCc2c(n(CC(=O)N3CCCC3)c3ccc(Cl)cc23)CC1 target_system="human recombinant adrenergic α2B receptor (Homo sapiens, UniProt P18089)" qualitative_label=F
compound=Cc1ccc(CCn2c3c(c4cc(Cl)ccc42)CCN(C)CC3)cc1 target_system="human recombinant adrenergic α2B receptor (Homo sapiens, UniProt P18089)" qualitative_label=T
compound="Cc1ccc2c(c1)c1c(n2CC(O)c2ccc(C)nc2)CCN(C)CC1 (stereo not drawn)" target_system="human recombinant adrenergic α2B receptor (Homo sapiens, UniProt P18089)" qualitative_label=F
compound=COc1ccc(/C=C/n2c3c(c4cc(Cl)ccc42)CCN(C)CC3)cc1 target_system="human recombinant adrenergic α2B receptor (Homo sapiens, UniProt P18089)" qualitative_label=T
compound=CN1CCc2c(n(CCc3ccc(C(=O)O)nc3)c3ccc(Cl)cc23)CC1 target_system="human recombinant adrenergic α2B receptor (Homo sapiens, UniProt P18089)" qualitative_label=F
compound=CN1CCc2c(n(CC(=O)N(C)C3CCCCC3)c3ccc(Cl)cc23)CC1 target_system="human recombinant adrenergic α2B receptor (Homo sapiens, UniProt P18089)" qualitative_label=F
compound=Cc1ccc2c(c1)c1c(n2CC(=O)N2CCCCC2)CCN(C)CC1 target_system="human recombinant adrenergic α2B receptor (Homo sapiens, UniProt P18089)" qualitative_label=F
compound=CN1CCc2c(n(CC(=O)N3CCNCC3)c3ccc(Cl)cc23)CC1 target_system="human recombinant adrenergic α2B receptor (Homo sapiens, UniProt P18089)" qualitative_label=F
compound=CC1CCN(C(=O)Cn2c3c(c4cc(Cl)ccc42)CCN(C)CC3)CC1 target_system="human recombinant adrenergic α2B receptor (Homo sapiens, UniProt P18089)" qualitative_label=F
compound=Cc1ccc2c(c1)c1c(n2CC(=O)OC2CCCC2)CCN(C)CC1 target_system="human recombinant adrenergic α2B receptor (Homo sapiens, UniProt P18089)" qualitative_label=F
compound="CN1CCc2c(n(CC(O)c3ccc(F)cc3)c3ccc(Cl)cc23)CC1 (stereo not drawn)" target_system="human recombinant adrenergic α2B receptor (Homo sapiens, UniProt P18089)" qualitative_label=T
compound="COc1ccc(C(O)Cn2c3c(c4cc(C)ccc42)CCN(C)CC3)cc1 (stereo not drawn)" target_system="human recombinant adrenergic α2B receptor (Homo sapiens, UniProt P18089)" qualitative_label=T
compound=C/C(=C/n1c2c(c3cc(C)ccc31)CCN(C)CC2)c1ccc(Cl)cc1Cl target_system="human recombinant adrenergic α2B receptor (Homo sapiens, UniProt P18089)" qualitative_label=T
